Tested on: Aspergillus niger
Test: Antimicrobial activity against Aspergillus niger assessed as growth inhibition by microdilution method
Format: functional

- structure_smiles: "Cc1cccc2cc3c(nc12)SC(Nc1ccccc1)=NN=C3"
  relation_symbol: "="
  MIC [µg/mL]: 1000
- structure_smiles: "COc1ccc2nc3c(cc2c1)C=NN=C(Nc1ccc(C)cc1C)S3"
  relation_symbol: "="
  MIC [µg/mL]: 1000
- structure_smiles: "Cc1ccc2nc3c(cc2c1)C=NN=C(Nc1ccc(F)cc1)S3"
  relation_symbol: "="
  MIC [µg/mL]: 1000
- structure_smiles: "COc1ccc2nc3c(cc2c1)C=NN=C(Nc1ccccc1F)S3"
  relation_symbol: "="
  MIC [µg/mL]: 500
- structure_smiles: "Cc1c(Cl)ccc2cc3c(nc12)SC(Nc1cccc(F)c1)=NN=C3"
  relation_symbol: "="
  MIC [µg/mL]: 1000
- structure_smiles: "COc1ccc2nc3c(cc2c1)C=NN=C(Nc1cccc(F)c1)S3"
  relation_symbol: "="
  MIC [µg/mL]: 1000
- structure_smiles: "Cc1ccc(NC2=NN=Cc3cc4cccc(C)c4nc3S2)cc1"
  relation_symbol: "="
  MIC [µg/mL]: 1000
- structure_smiles: "COc1ccc2nc3c(cc2c1)C=NN=C(Nc1cccc(Cl)c1)S3"
  relation_symbol: "="
  MIC [µg/mL]: 500
- structure_smiles: "Cc1c(Cl)ccc2cc3c(nc12)SC(Nc1ccccc1F)=NN=C3"
  relation_symbol: "="
  MIC [µg/mL]: 500
- structure_smiles: "Cc1c(Cl)ccc2cc3c(nc12)SC(Nc1cccc(Cl)c1)=NN=C3"
  relation_symbol: "="
  MIC [µg/mL]: 500
- structure_smiles: "Cc1ccc2nc3c(cc2c1)C=NN=C(Nc1ccccc1F)S3"
  relation_symbol: ">"
  MIC [µg/mL]: 1000

###

Test system: Alternaria alternata
Assay: Antimicrobial activity against Alternaria alternata assessed as growth inhibition by microdilution method
Format: functional

- structure_smiles: "Cc1ccc2nc3c(cc2c1)C=NN=C(Nc1ccc(Cl)cc1)S3"
  unit_text: "µg/mL"
  MIC: 30
- structure_smiles: "Cc1cccc2cc3c(nc12)SC(Nc1ccc(F)cc1)=NN=C3"
  unit_text: "µg/mL"
  MIC: 500
- structure_smiles: "Cc1ccc(NC2=NN=Cc3cc4cc(C)ccc4nc3S2)c(C)c1"
  unit_text: "µg/mL"
  MIC: 500
- structure_smiles: "COc1ccc2nc3c(cc2c1)C=NN=C(Nc1ccc(Cl)cc1)S3"
  unit_text: "µg/mL"
  MIC: 30
- structure_smiles: "CCc1ccc(NC2=NN=Cc3cc4cc(C)ccc4nc3S2)cc1"
  unit_text: "µg/mL"
  MIC: 500
- structure_smiles: "Cc1c(Cl)ccc2cc3c(nc12)SC(NCCN1CCOCC1)=NN=C3"
  unit_text: "µg/mL"
  MIC: 1000

###

System: Alternaria alternata
Test: Antimicrobial activity against Alternaria alternata assessed as growth inhibition by microdilution method
Type: functional
Rule: MIC below 500 µg/mL gives fulfilled, anything at or above gives not fulfilled.

- structure_smiles: "COc1ccc2nc3c(cc2c1)C=NN=C(NCc1ccccc1)S3"
  category: "not fulfilled"
- structure_smiles: "Cc1c(Cl)ccc2cc3c(nc12)SC(Nc1ccc(Cl)cc1)=NN=C3"
  category: "fulfilled"
- structure_smiles: "Cc1ccc2nc3c(cc2c1)C=NN=C(Nc1ccccc1)S3"
  category: "not fulfilled"
- structure_smiles: "COc1ccc2nc3c(cc2c1)C=NN=C(Nc1cccc(Cl)c1)S3"
  category: "fulfilled"
- structure_smiles: "Cc1cccc2cc3c(nc12)SC(NCc1ccccc1)=NN=C3"
  category: "not fulfilled"
- structure_smiles: "Cc1ccccc1NC1=NN=Cc2cc3cccc(C)c3nc2S1"
  category: "not fulfilled"
- structure_smiles: "Cc1cccc2cc3c(nc12)SC(Nc1ccccc1)=NN=C3"
  category: "not fulfilled"
- structure_smiles: "Cc1ccc2nc3c(cc2c1)C=NN=C(Nc1ccc(F)cc1)S3"
  category: "not fulfilled"
- structure_smiles: "Cc1ccc2nc3c(cc2c1)C=NN=C(NCc1ccccc1)S3"
  category: "not fulfilled"
- structure_smiles: "Cc1c(Cl)ccc2cc3c(nc12)SC(Nc1ccccc1Cl)=NN=C3"
  category: "fulfilled"
- structure_smiles: "Cc1ccc2nc3c(cc2c1)C=NN=C(Nc1ccccc1C)S3"
  category: "not fulfilled"
- structure_smiles: "Cc1c(Cl)ccc2cc3c(nc12)SC(Nc1ccc(F)cc1)=NN=C3"
  category: "fulfilled"
- structure_smiles: "Cc1c(Cl)ccc2cc3c(nc12)SC(Nc1ccccc1)=NN=C3"
  category: "fulfilled"
- structure_smiles: "Cc1ccc(NC2=NN=Cc3cc4ccc(Cl)c(C)c4nc3S2)c(C)c1"
  category: "fulfilled"
- structure_smiles: "COc1ccc2nc3c(cc2c1)C=NN=C(Nc1ccc(C)cc1C)S3"
  category: "fulfilled"
- structure_smiles: "Cc1ccc(NC2=NN=Cc3cc4cccc(C)c4nc3S2)cc1"
  category: "not fulfilled"
- structure_smiles: "Cc1ccc2nc3c(cc2c1)C=NN=C(Nc1ccccc1Cl)S3"
  category: "not fulfilled"
- structure_smiles: "Cc1cccc2cc3c(nc12)SC(Nc1ccccc1Cl)=NN=C3"
  category: "not fulfilled"
- structure_smiles: "COc1ccc2nc3c(cc2c1)C=NN=C(Nc1c(C)cccc1C)S3"
  category: "not fulfilled"
- structure_smiles: "COc1ccc2nc3c(cc2c1)C=NN=C(Nc1ccccc1F)S3"
  category: "fulfilled"
- structure_smiles: "Cc1cccc(C)c1NC1=NN=Cc2cc3ccc(Cl)c(C)c3nc2S1"
  category: "fulfilled"
- structure_smiles: "Cc1ccccc1NC1=NN=Cc2cc3ccc(Cl)c(C)c3nc2S1"
  category: "fulfilled"
- structure_smiles: "Cc1ccc2nc3c(cc2c1)C=NN=C(Nc1ccccc1F)S3"
  category: "not fulfilled"
- structure_smiles: "CCc1ccc(NC2=NN=Cc3cc4ccc(Cl)c(C)c4nc3S2)cc1"
  category: "not fulfilled"
- structure_smiles: "COc1ccc2nc3c(cc2c1)C=NN=C(Nc1ccc(F)cc1)S3"
  category: "fulfilled"
- structure_smiles: "Cc1c(Cl)ccc2cc3c(nc12)SC(Nc1cccc(F)c1)=NN=C3"
  category: "not fulfilled"
- structure_smiles: "COc1ccc2nc3c(cc2c1)C=NN=C(Nc1ccccc1C)S3"
  category: "not fulfilled"
